MEASUREMENT_PROTOCOL: in vitro
EXPERIMENTAL_PARAMETERS: human, hela cells, % viability
In this section, each of the compounds is paired with its reported viability at 28.5 h, 10 µM.
TEST_READOUT: viability at 28.5 h, 10 µM (%)

compound=C=C(C)Cn1c(SCC(C)C)nnc1-c1ccc(O)nc1 measured_result=92.2
compound=O=C1CCC(=O)N1CCOc1nccnc1N1CCN(CCCn2c(=O)[nH]c3ccccc32)CC1 measured_result=110
compound=Cc1nnc(CS(=O)(=O)Cc2csc(C(C)C)n2)n1C1CC1 measured_result=101
compound=COc1ccc(C(=O)CSc2nnc(-c3ccccc3)[nH]2)cc1[N+](=O)[O-] measured_result=97.4
compound=CC(C)[C@@H](CO)n1c(=O)[nH]c2ncc(-c3cccc(/C=C/C(=O)O)c3)nc21 measured_result=88.6
compound=Cc1csc2c(C3CCN(C(=O)c4ccccn4)CC3)nc(C)n12 measured_result=77.4
compound=O=C(O)CCN1C(=O)c2ccc(NC(=O)CCc3ccccc3)cc2C1=O measured_result=95.2
compound=O=C(Nc1cc(Oc2cncc(Cl)c2)cc([N+](=O)[O-])c1)c1nn2c(C(F)(F)F)cc(-c3cccs3)nc2c1Cl measured_result=94.9
compound=Cc1cc(NC(=O)CCn2c(C(F)F)cc3cccnc32)nn1C measured_result=90.2
compound="COc1cc2c(cc1OC)C(CCN1CCN(c3ccc(Cl)cc3)CC1)OCC(C)(C)C2 (stereo not shown) [CBK024051C]" measured_result=111
compound=Cc1ccc([N+](=O)[O-])cc1NC(=O)CCn1cnc2ccccc2c1=O measured_result=106
compound=Cc1ccc(C(=O)O)cc1S(=O)(=O)N(C)CCO measured_result=94.1
compound=CCOC(=O)C1CCN(S(=O)(=O)c2ccc(NC(=O)N3CCCC3)cc2)CC1 measured_result=100
compound="CCN(CC)CCn1nc2n(c1=O)-c1ccccc1SC(c1ccccc1)C2 (stereo not shown)" measured_result=91.9
compound=CCc1nc2c(OCCCN(C)S(C)(=O)=O)cccn2c1N(C)C(=O)c1ccco1 measured_result=95
compound="Cc1ccc(-c2cc(C(=O)N3CCN(C4CCS(=O)(=O)C4)CC3)c3ccccc3n2)cc1 (stereo not shown)" measured_result=112
compound="CCC(C)(NC=O)C(=O)Nc1ccccc1C(=O)O (stereo not shown)" measured_result=97
compound="CC1CCN(S(=O)(=O)c2ccc(C(=O)N3CCCCC3C(=O)O)cc2)CC1 (stereo not shown)" measured_result=89.8
compound=NC(=O)CN1CC2(CCN(CCCn3c(=O)[nH]c4ccccc43)CC2)c2ccccc21 measured_result=89.6
compound="CCCC(=O)c1ccc2c(c1)CC(N(CCC)CCC)C2 (stereo not shown) [CBK023971C]" measured_result=95.1
compound=O=C(O)COc1ccc(S(=O)(=O)N2CCCc3ccccc32)cc1 measured_result=110
compound="O=C(NCc1cccnc1)C1CCC(Cn2c(=S)[nH]c3ccccc3c2=O)CC1 (stereo not shown)" measured_result=87.9
compound=CNC(=O)C1(Cc2ccc(-c3cccc(C)c3)cc2)CCN(C(=O)C(C)(C)C)CC1 measured_result=98.6
compound=Cc1cc2c(s1)c1cnn(Cc3ccccn3)c(=O)c1n2C measured_result=65.4
compound=O=C(Cc1cccc2ccccc12)Nc1ccc2oc(-c3ccccc3)nc2c1 measured_result=96.3
compound=CN(C)CCCN(Cc1ccc2ncccc2c1)Cc1ccco1 measured_result=112
compound=CC(=O)Nc1ccc(Sc2cnccn2)cc1 measured_result=89.7
compound="CC(C)c1cccc(C(C)C)c1OCC(O)CN1CCCCC1 (stereo not shown) [CBK003079T]" measured_result=94.6
compound=Cc1ccccc1NS(=O)(=O)c1ccc(OCC(=O)N2CCN(C)CC2)cc1 measured_result=88.4
compound=CC(C)(C)OC(=O)N1CCN(c2ccc([N+](=O)[O-])cn2)CC1 measured_result=95.6
compound=Cc1sc2nc(SCC(=O)Nc3ccc(S(N)(=O)=O)cc3)n(-c3ccccc3)c(=O)c2c1C measured_result=108
compound="CCc1ccc(C(O)CNC2CCN(CC(F)F)CC2)cc1 (stereo not shown)" measured_result=109
compound=Cc1nc2ccc(C(=O)N(C)CCN3CCCCC3)cc2s1 measured_result=93.4
compound="O=C(Cc1ccc(Cl)c(Cl)c1)N1CCCC2(CCN(C(=O)c3ccoc3)C2)C1 (stereo not shown)" measured_result=87.4
compound=CS(=O)(=O)Nc1cc2ccccc2c(-c2ccc(S(C)(=O)=O)cc2)n1 measured_result=95.6
compound=CCCOc1ccc(-c2nn(-c3ccccc3)cc2/C=C2\SC(=S)N(CC(=O)O)C2=O)cc1 measured_result=111
compound=COc1ccccc1-c1nn2c(Cn3nnc4ccccc43)nnc2s1 measured_result=82.4
